# system.under.test: T1, full-length human SIRPγ N→D on Expi-CHO cells (human, UniProt Q9P1W8 29-387)
# T1 construct: the entry already carries the change (PENV to PEDV)
# assay.details: flow cytometry, Expi-CHO cells

| binder | EC50 (nM) |
| --- | --- |
| Antibody A4 (antibody, human IgG1, kappa, L234A L235A, V domains shown) VH: EVQLVESGGGLVQPGGSLRLSCAASGFTLSSYDMHWVRQAPGKGLEWVSAIGTAGDTYYTGSVKGRFTISRENAKNSLYLQMNSLRAADTAVYYCVRGGVWDDAFDIWGQGTMVTVSS VL: DIQMTQSPSSLSASVGDRVTITCRASQGINNYAAWFQQKPGKAPKSLIYTASSLHSGVPSKFSGSGSGTDFTLTISSLQPEDFATYYCQQYVSYPYTFGQGTKLEIKR | 0.5 |
